Provenance of the data: patent US20220185900A1

Biological target: T1, hRET.mmh (human, UniProt P07949 29-635, biotinylated in the ELISA of Example 4 (biot-hRET.mmh); not in the SPR of Example 3)
T1 construct: also called biot-hRET.mmh; soluble monomeric human RET
Assay: SPR Biacore T200, mAb capture, 37 C
propertyMeasured: pKd
pKd (log units): -log10 of the concentration in mol/L.

Kindly note the recorded pKd for H4H8058P (antibody, human IgG4, V domains shown, human IgG4 Fc (H4H prefix)) VH: QVQLVESGGGVGQPGRSLRLSCVASGFTFRNYGMHWVRQAPGKGLDWVAIIGYDGSKEYNVDSVKGRFTISRDNSKNTLYLQMNSLGAEDTAIYYCARESPITGTTFDYWGQGTLVTVSS VL: DIQMTQSPPSLSASVGDRVTITCRASQSIGNYLNWYQQKPGKAPKILIYAASRLQSGVPSRFSGSGSGTDFTLTISSLQPEDFATYYCQQSYSTPLTFGGGTKVEIK , which is 8.38

// pKd value for H4H8045P (antibody, human IgG4, V domains shown, human IgG4 Fc (H4H prefix)) VH: EVQLVESGGALVQPGGSLRLSCAASGFTFSNYAMTWVRQAPGMGLEWVSGISSSGASTFYADSVKGRFTISRDNSKNTLYLQMNSLRAEDTAVYYCAKEDYWGWFDYWGQGTLVTVSS VL: DIQLTQSPSFLSASVGDRVTITCWASQDVSSYLAWYQQEPGKAPKVLIYDASTLQSGVPSRFSGSGSGTEFTLTISSLQPEDFAPYYCQQLNSYPYTFGQGTKLEIK : 8.49

Kindly note the recorded pKd for H4H8087P (antibody, human IgG4, V domains shown, human IgG4 Fc (H4H prefix)) VH: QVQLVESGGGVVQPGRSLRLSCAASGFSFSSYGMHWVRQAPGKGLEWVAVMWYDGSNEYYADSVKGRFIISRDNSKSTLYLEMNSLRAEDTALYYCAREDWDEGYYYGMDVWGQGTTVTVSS VL: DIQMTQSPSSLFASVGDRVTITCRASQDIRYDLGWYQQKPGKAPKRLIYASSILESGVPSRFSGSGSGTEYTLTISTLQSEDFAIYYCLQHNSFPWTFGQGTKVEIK , which is 9.01

For H4H8056P (antibody, human IgG4, V domains shown, human IgG4 Fc (H4H prefix)) VH: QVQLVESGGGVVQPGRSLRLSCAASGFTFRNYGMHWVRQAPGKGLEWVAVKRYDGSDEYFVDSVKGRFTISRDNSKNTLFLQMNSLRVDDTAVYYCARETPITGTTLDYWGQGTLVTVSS VL: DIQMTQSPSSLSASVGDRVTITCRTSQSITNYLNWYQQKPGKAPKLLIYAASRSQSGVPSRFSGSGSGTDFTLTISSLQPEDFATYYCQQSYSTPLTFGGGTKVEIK the binder record lists pKd as 8.05

The reported pKd of the binder H4H8066P (antibody, human IgG4, V domains shown, human IgG4 Fc (H4H prefix)) VH: EVQLVESGGGLVQPGGSLRLSCEASGFTFSRYAMTWVRQAPGKGLEWVSGISGSGGSTFYVDSLQGRFTLSRDNSKHTLFLQMNSLRAEDTAIYYCAKENTYGHFDYWGQGTLVTVSS VL: DIQLTQSPSFLSASVGDRVTITCWASQDISTYLAWYQQKPGKAPQVLIYAASSLQYGVPSRFSGSGSGTEFTLTITSLQPEDFATYYCQQLIGYPYIFGQGTKLEIK was 8.27

response.value for H4H8046P (antibody, human IgG4, V domains shown, human IgG4 Fc (H4H prefix)) VH: QVQLVQSRDEVKKPGASVKVSCKASGYTFTTYGISWVRQAPGQGLEWMGWINTYNGDTNYAQKVQDRVIMTTDTSTSTAYMELRSLRSDDTAVYFCAGARPLGGRRAFDIWGQGTMVTVSS VL: DIQMTQSPSSLSASVGDRVTITCRASQGISHYLAWYQQKPGKVPKLLIYAASTLQSGVPSRFSGSGSGTDFTLTISSLQPEDVATYYCQKYNSVPWTFGQGTKVEIK (field: pKd) = 8.74

Measured pKd, H4H8085P (antibody, human IgG4, V domains shown, human IgG4 Fc (H4H prefix)) VH: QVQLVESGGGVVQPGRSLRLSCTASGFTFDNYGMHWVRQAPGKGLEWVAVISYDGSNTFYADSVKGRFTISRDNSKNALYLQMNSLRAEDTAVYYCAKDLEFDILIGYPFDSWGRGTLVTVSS VL: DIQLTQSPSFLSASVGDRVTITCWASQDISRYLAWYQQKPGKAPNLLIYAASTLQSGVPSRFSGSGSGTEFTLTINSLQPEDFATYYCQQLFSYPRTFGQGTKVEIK : 8.21

Short answer for H4H8062P (antibody, human IgG4, V domains shown, human IgG4 Fc (H4H prefix)) VH: EVQLVESGGGLVQPGGSLRLSCSVSGFIFKNYAMRWVRQAPGKGLEWVSGISGSGGITYYADSVRGRVTISRDNSKNTLDLQMTNLRAEDTAVYYCAKAEYSSSGAYFDYWGQGTLVTVSS VL: DIQMTQSPSSLSASVGDRVTITCRASQSIHNYLNWYLQRPGKAPKLLVYAASSLQSGVPSRFSGRGSGTDFTLTISSLQPEDFATYYCQQSYSAPYSFGQGTKLEIK : pKd was 8.58

Entry H4H8060P (antibody, human IgG4, V domains shown, human IgG4 Fc (H4H prefix)) VH: QVTLKESGPVLVKPTETLTLTCTVSGFSLSSARMGVSWIRQPPGKALEWLAHIFSTDEKSYSTSLKSRLSISKDTSLSQVVLIMTNMDPVDTATYYCARRTTMAPYYYYYGMDVWGHGTTVTVSS VL: AIQMTQSPASLSASVGDRVTITCRASQGIRNDLGWYQQKPGKAPKLLISAASSLQSGVPSRFSGSGSGTDFTLTISSLQPEDFATYYCLQDYKYPWTFGQGTKVEIK , pKd reported as 8.85
